Can you tell me pKd for the items I'm about to list?
- targetOrSystem: PI3Kδ (Homo sapiens, UniProt O00329)
- Sequence (O00329 1-1044): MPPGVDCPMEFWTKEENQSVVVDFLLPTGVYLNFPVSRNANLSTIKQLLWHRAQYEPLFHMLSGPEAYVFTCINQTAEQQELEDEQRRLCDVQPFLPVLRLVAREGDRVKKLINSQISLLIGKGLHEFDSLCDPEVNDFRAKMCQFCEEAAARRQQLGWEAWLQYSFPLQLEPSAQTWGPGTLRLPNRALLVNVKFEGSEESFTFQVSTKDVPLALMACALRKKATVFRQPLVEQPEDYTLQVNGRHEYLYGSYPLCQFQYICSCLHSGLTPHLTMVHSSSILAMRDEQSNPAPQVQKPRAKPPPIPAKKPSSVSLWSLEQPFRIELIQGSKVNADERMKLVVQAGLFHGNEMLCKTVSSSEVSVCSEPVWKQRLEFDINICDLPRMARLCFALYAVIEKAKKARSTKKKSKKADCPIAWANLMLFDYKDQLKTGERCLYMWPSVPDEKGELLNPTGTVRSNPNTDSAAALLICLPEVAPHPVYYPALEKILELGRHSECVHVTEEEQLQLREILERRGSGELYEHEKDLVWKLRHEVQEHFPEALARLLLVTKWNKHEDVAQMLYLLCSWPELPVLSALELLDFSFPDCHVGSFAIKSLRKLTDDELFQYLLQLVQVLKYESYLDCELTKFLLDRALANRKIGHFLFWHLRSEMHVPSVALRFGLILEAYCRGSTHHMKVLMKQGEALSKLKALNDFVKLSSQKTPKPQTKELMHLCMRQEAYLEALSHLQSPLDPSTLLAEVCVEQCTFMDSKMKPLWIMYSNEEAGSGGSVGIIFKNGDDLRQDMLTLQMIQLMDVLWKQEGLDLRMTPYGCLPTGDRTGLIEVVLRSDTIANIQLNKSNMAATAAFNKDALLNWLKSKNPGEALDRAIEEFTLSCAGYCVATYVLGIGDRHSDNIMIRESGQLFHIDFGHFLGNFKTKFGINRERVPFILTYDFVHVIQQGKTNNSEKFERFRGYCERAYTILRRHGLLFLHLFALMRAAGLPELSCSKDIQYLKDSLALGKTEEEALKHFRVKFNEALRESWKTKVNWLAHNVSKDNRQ
Answers are plain numbers, as −log10 of the molar value.

Sample records with pKd:
>>> observed("CN[C@H]1CCN(C(=O)c2cc(C(C)Oc3ccc(F)c(F)c3)c3nc(N4CCOCC4)cnc3c2)C1 (single isomer, unassigned) [Compound 370a]")
6.97
>>> observed("CC(Oc1ccc(F)c(F)c1)c1cc(C(=O)N2CCN3CCC[C@H]3C2)cc2ncc(N3CCOCC3)nc12 (single isomer, unassigned) [Compound 369a]")
6.28
>>> observed("CNCCN(C)C(=O)c1cc(C(C)Oc2cc(F)c(F)c(F)c2)c2nc(N3CCOCC3)cnc2c1 (stereo not shown) [Compound 379a]")
6.09
>>> observed("CN(C(=O)c1cc(NCc2cc(F)cc(F)c2)c2nc(N3CCOCC3)cnc2c1)[C@@H]1CCNC1 [Compound 355]")
5.54
>>> observed("CCOC(=O)CNC(=O)c1cc(C(C)Nc2cccc(F)c2)c2nc(N3CCOCC3)cnc2c1 (stereo not shown) [Compound 392a]")
5.55

State the recorded pKd for every item in the following list.
1. CC(Oc1ccc(F)c(F)c1)c1cc(C(=O)NCCN(C)C)cc2ncc(N3CCOCC3)nc12 (single isomer, unassigned) [Compound 299a]
2. CC(Nc1ccc(F)c(F)c1)c1cc(C(=O)NCC(C)(C)O)cc2ncc(N3CCOCC3)nc12 (single isomer, unassigned) [Compound 348a]

Result:
1: 6.57; 2: 6.04

---

- targetOrSystem: PI3Kβ (Homo sapiens, UniProt P42338)
- Construct: purchased DiscoveRx Corporation, San Diego (contract service, KINOMEscan)
- Sequence (P42338 whole entry): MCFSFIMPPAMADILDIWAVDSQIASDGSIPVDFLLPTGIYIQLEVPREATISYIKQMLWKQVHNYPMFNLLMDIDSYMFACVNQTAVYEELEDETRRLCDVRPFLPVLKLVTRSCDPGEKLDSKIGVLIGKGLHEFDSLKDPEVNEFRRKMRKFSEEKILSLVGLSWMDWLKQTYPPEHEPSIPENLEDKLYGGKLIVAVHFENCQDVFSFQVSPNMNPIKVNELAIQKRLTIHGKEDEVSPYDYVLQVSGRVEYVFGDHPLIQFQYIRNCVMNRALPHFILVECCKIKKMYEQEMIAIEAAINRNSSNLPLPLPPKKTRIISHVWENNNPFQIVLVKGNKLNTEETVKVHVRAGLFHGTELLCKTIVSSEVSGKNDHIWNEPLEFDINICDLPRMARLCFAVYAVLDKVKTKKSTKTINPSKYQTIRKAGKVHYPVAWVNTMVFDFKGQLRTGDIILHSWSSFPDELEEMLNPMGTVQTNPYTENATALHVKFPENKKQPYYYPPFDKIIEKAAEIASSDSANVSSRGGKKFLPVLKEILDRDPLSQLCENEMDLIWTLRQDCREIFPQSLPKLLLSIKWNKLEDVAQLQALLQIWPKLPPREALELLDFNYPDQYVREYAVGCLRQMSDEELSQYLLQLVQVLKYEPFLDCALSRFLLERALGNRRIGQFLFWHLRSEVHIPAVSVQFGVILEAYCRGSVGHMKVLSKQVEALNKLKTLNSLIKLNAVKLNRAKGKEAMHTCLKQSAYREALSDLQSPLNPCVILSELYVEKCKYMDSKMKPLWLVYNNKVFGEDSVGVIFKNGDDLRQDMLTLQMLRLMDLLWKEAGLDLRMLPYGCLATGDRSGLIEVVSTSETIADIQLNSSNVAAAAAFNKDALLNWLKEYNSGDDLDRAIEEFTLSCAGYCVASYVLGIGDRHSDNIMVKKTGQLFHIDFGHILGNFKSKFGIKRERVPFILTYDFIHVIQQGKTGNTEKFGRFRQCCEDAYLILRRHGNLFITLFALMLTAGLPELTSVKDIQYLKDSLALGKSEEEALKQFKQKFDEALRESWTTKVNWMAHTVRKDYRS
- experimentNotes: Enzyme binding assay (KINOMEscan, DiscoveRx)
- protocolConditions: PIK3Cβ_h, read-out: Kd PIK3Cβ_h
Can you tell me pKd for the items I'm about to list?
Numbers only, as −log10 of the molar value.

Sample records with pKd:
>>> observed("CN(C)C(=O)c1cc(N2CCCC2c2cc(F)cc(F)c2)c2nc(N3CCOCC3)cnc2c1 (stereo not shown) [Compound 395]")
7.48
>>> observed("CNCCN(C)C(=O)c1cc(N(C)Cc2cccc(F)c2C)c2nc(N3CCOCC3)cnc2c1 [Compound 362]")
8.70
>>> observed("CC(Nc1cc(F)cc(F)c1)c1cc(CN2CCOCC23COC3)cc2ncc(N3CCOCC3)nc12 (single isomer, unassigned) [Compound 195]")
8.70
>>> observed("CCOC(=O)CNC(=O)c1cc(C(C)Nc2cccc(F)c2)c2nc(N3CCOCC3)cnc2c1 (stereo not shown) [Compound 392a]")
7.68
>>> observed("COCCNC(=O)c1cc(C(C)Nc2cc(F)cc(F)c2)c2nc(N3CCOCC3)cnc2c1 (single isomer, unassigned) [Compound 203]")
8.30

State the recorded pKd for every item in the following list.
1. CNCCN(C)C(=O)c1cc(C2CCCN2c2cc(F)cc(F)c2)c2nc(N3CCOCC3)cnc2c1 (stereo not shown) [Compound 18]
2. CC(Nc1cc(F)c(C(F)(F)F)c(F)c1)c1cc(C(=O)NCCO)cc2ncc(N3CCOCC3)nc12 (stereo not shown) [Compound 223]

Result:
[10.00, 5.32]

---

- targetOrSystem: kinase enzymes (Homo sapiens, UniProt P42336)
- Sequence (P42336 whole entry): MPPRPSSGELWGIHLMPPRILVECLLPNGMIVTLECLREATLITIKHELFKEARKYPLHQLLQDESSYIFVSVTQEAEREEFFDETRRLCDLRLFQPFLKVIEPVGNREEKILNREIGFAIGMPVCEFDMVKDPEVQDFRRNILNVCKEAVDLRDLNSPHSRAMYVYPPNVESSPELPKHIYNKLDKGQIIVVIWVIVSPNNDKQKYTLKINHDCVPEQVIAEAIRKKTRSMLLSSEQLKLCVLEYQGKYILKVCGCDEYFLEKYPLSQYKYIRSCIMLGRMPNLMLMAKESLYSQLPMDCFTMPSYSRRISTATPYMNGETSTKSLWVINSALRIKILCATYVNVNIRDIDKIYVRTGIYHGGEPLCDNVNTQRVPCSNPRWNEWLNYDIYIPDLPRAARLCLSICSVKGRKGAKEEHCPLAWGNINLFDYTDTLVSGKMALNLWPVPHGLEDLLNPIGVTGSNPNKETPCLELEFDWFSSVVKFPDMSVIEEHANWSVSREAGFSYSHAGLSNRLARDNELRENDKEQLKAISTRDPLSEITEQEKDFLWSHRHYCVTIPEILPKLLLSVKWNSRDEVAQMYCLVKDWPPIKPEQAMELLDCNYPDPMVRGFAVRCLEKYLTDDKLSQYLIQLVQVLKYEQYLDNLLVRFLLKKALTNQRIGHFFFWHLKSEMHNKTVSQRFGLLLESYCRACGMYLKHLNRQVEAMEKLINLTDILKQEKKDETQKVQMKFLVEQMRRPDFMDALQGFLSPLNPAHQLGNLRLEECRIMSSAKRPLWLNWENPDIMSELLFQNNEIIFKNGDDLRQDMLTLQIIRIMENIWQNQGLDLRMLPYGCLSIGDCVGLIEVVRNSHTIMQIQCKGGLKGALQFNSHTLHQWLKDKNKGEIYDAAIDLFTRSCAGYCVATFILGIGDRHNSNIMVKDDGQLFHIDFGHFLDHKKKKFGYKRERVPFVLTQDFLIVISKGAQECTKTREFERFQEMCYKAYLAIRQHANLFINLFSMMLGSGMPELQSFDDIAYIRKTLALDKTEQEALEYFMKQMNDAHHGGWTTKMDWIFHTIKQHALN
Can you tell me pKd for the items I'm about to list?
Numbers only, as −log10 of the molar value.

>>> observed("CNCCNC(=O)c1cc(C(C)Oc2ccc(F)c(F)c2)c2nc(N3CCOCC3)cnc2c1 (single isomer, unassigned) [Compound 344a]")
5.67
>>> observed("O=C(O)c1cc(C2CCCN2c2cc(F)cc(F)c2)c2nc(N3CCOCC3)cnc2c1 (stereo not drawn) [Compound 62]")
7.60

Let's switch to this compound now.
Ask: What does the data say about its pKd? Entry: [2H]C([2H])(O)C([2H])([2H])NC(=O)c1cc(C(C)Nc2cccc(F)c2)c2nc(N3CCOCC3)cnc2c1 (single isomer, unassigned) [Compound 408a]
Result: 5.84

---

- targetOrSystem: kinase enzymes (Homo sapiens)
outcomeMeasure: pKd
One number for each entry, as −log10 of the molar value.

>>> observed("CNCCOCCN(C)C(=O)c1cc(C(C)Nc2cc(F)c(F)c(F)c2)c2nc(N3CCOCC3)cnc2c1 (single isomer, unassigned) [Compound 315b]")
5.26

State the recorded pKd for every item in the following list.
1. CC(C)NCCN(C)C(=O)c1cc(N(C)Cc2cc(F)cc(F)c2)c2nc(N3CCOCC3)cnc2c1 [Compound 390]
2. CC(C)NCCNC(=O)c1cc(NCc2cc(F)cc(F)c2)c2nc(N3CCOCC3)cnc2c1 [Compound 342]

Result:
[4.65, 4.57]

---

- targetOrSystem: PI3Kβ (Homo sapiens, UniProt P42338)
- Construct: purchased DiscoveRx Corporation, San Diego (contract service, KINOMEscan)
- experimentNotes: Enzyme binding assay (KINOMEscan, DiscoveRx)
- protocolConditions: PIK3Cβ_h, read-out: Kd PIK3Cβ_h
pKd: −log10 of the molar value.
Criterion: pKd meeting or surpassing 7. Met: Met. Not met: Not met.

Example results:
>>> grouplabel("CC(Nc1cccc(C#N)c1)c1cc(C(=O)N(C)C)cc2ncc(N3CCOCC3)nc12 (centres unmarked)")
"Met"
>>> grouplabel("CC(Nc1ccc(F)c(F)c1)c1cc(C(=O)N(C)C2CCNC2)cc2ncc(N3CCOCC3)nc12 (centres unmarked) [Compound 322b]")
"Met"
>>> grouplabel("CC(Nc1cc(F)cc(F)c1)c1cc(C(=O)N2CCNC(C(F)(F)F)C2)cc2ncc(N3CCOCC3)nc12 (single isomer, unassigned) [Compound 237c]")
"Met"

Ask: Threshold query (pKd >= 7) on CC(Nc1cc(F)cc(F)c1)c1cc(CN2CCO[C@H](CO)C2)cc2ncc(N3CCOCC3)nc12 (single isomer, unassigned) [Compound 194]
Result: Not met

Ask: Continue with CNCCN(C)C(=O)c1cc(C(C)Nc2cc(F)c(C(F)(F)F)c(F)c2)c2nc(N3CCOCC3)cnc2c1 (centres unmarked)
Result: Not met

---

Can you tell me IC50 for the items I'm about to list?
- Tested on: Akt phosphorylated at Ser473 in PC-3 cells
- experimentNotes: Cellular assay: phosphorylation of Akt at Ser473 in PC-3 cells (MSD ELISA)
- Type: cell-based
- protocolConditions: PC-3 cells, 60 min compound incubation, MSD ELISA; read-out: IC50 pAkt_S473
Give bare numbers, in nM.

Sample records with IC50:
>>> observed("CC(Nc1ccc(F)c(F)c1)c1cc(C(=O)N(C)CCN(C)C)cc2ncc(N3CCOCC3)nc12 (single isomer, unassigned) [Compound 349b]")
479
>>> observed("CC(Nc1cc(F)cc(F)c1)c1cc(C(=O)NC[C@@H](C)O)cc2ncc(N3CCOCC3)nc12 (single isomer, unassigned) [Compound 201]")
42
>>> observed("CC(Oc1cc(F)cc(F)c1)c1cc(C(=O)N(C)CCO)cc2ncc(N3CCOCC3)nc12 (single isomer, unassigned) [Compound 61]")
182

State the recorded IC50 for every item in the following list.
1. CC(C)NCCNC(=O)c1cc(C(C)Nc2ccc(F)c(F)c2)c2nc(N3CCOCC3)cnc2c1 (single isomer, unassigned) [Compound 364a]
2. C[C@@H]1CN(c2cnc3cc(C(=O)N(C)C)cc(C4CCCN4c4cccc(F)c4)c3n2)CCO1 (single isomer, unassigned) [Compound 30]

Result:
1. 35
2. 5
